meta.source: patent US20180022750A1

Biological target: human full-length MKNK1 (Homo sapiens, UniProt Q9BUB5, T385D)
Construct: GST (Glutathione-S-Transferase) (N)
Sequence (Q9BUB5 1-424 isoform Q9BUB5-2 T344D): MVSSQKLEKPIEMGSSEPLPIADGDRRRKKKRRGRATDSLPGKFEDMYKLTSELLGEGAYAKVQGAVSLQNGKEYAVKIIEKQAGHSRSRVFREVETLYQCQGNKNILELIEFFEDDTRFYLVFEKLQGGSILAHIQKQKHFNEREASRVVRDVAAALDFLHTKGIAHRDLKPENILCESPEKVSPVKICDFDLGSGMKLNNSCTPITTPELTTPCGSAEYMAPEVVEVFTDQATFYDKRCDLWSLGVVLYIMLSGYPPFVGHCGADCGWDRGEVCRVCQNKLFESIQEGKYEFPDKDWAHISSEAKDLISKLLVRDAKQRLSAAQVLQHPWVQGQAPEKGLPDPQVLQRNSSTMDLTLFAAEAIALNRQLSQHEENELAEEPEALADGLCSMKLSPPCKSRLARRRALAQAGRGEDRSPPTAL
Assay: MKNK1 kinase high ATP assay (TR-FRET, 2 mM ATP)
Settings: ATP 2 mM, 15 min preincubation, GST-MKNK1 (T344D)
pIC50: −log10 of the molar value.
experimental-endpoint: pIC50

compound | test-result
COc1ccc2cc(-c3cnc4ccc(OCCCN)nn34)oc2c1 | 6.04

A: COc1ccc2cc(-c3cnc4ccc(OCCC5CCCN5C)nn34)oc2c1 (stereo not drawn)
B: COc1ccc2cc(-c3cnc4ccc(OCCCN5CCOCC5)nn34)oc2c1
[ask] Select the item with the higher value of pIC50 from the options A and B listed. Answer with the label corresponding to your selection.
[reply] A
(A: 5.94, B: 5.67)

====

Target: human full-length MKNK1 (Homo sapiens)
Construct: GST (Glutathione-S-Transferase) (N); purchased Carna Biosciences 02-145; host or cells: insect cells (baculovirus expression system)
Assay: MKNK1 kinase assay (TR-FRET, 10 μM ATP)
Assay type: biochemical
Details: ATP 10 μM, 15 min preincubation, GST-MKNK1 (T344D)
pIC50: −log10 of the molar value.
experimental-endpoint: pIC50

# count of solved cases: 2
compound | pIC50
COc1ccc2cc(-c3cnc4ccc(OCCCO)nn34)oc2c1 [Example 1] | 6.15
COc1ccc2cc(-c3cnc4ccc(OCCN5CCNC5=O)nn34)oc2c1 [Example 12] | 6.39

I: COc1ccc2cc(-c3cnc4ccc(OCCCCN)nn34)oc2c1 [Example 8]
II: COc1ccc2cc(-c3cnc4ccc(OCCC5CCCN5C)nn34)oc2c1 (stereo not shown) [Example 11]
[ask] In terms of reported pIC50, does I or II have the smaller number? Use the label to indicate which entry you chose.
[reply] II
(II: 6.18, I: 6.66)
